molecules and their reported IC50
subjectOfTest: human DP2 receptor (Homo sapiens)
testDetails: DP2/CRTH2 radioligand binding assay ([3H]PGD2)
conditionNotes: membranes of HEK293 cells expressing recombinant human DP2, 1 nM [3H]PGD2; read-out: hDP2
valueKind: IC50

> print(dat)
                                   molecule  valuekind   observedvalue
1  COc1ccc(CC(=O)O)cc1Oc1ccc(C(F)(F)F)cc1C[S+]([O-])C(C)(C)C (centres unmarked)       IC50       > 1000 nM
2  O=C(O)Cc1cccc(Oc2ccc(Br)cc2CS(=O)(=O)c2ccccc2)c1       IC50        < 300 nM
3  O=C(O)Cc1cccc(Oc2ccc(Br)cc2CSc2ccccc2)c1       IC50        < 300 nM
4   O=C(O)CSCc1cc(Br)ccc1Oc1cccc(CC(=O)O)c1       IC50       > 1000 nM
5  COc1ccc(CC(=O)O)cc1Oc1ccc(NC(=O)C(C)(C)C)cc1COc1ccccc1       IC50  300 to 1000 nM

----------
subjectOfTest: human DP1 receptor (Homo sapiens, UniProt Q13258)
Construct: tissue Biological Specialty Corporation; host or cells: human platelets, membrane preparation
Sequence (Q13258 whole entry): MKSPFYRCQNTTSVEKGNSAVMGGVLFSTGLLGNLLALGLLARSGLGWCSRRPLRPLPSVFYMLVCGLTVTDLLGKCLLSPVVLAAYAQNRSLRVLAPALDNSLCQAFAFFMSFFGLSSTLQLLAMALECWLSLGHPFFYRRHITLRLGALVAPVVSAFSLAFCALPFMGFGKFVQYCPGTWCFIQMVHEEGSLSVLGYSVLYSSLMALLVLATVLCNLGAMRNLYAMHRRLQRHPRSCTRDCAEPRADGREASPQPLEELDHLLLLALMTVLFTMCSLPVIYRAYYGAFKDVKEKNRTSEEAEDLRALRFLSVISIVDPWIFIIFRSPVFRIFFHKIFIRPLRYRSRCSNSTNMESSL
testDetails: DP1 radioligand membrane binding assay ([3H]BWA868C)
conditionNotes: human platelet membranes, 2 nM [3H]BWA868C; read-out: hDP1
pIC50: −log10 of the molar value.
compounds and their reported pIC50
valueKind: pIC50

> print(dat)
                                 smilesdata  observedvalue
1  O=C(O)Cc1cccc(Oc2ccc(Br)cc2CS(=O)(=O)c2ccccn2)c1         < 6.00
2  COc1ccc(CC(=O)O)cc1Oc1ccc(C(F)(F)F)cc1CS(=O)(=O)CCc1ccccc1         < 6.00
3  O=C(O)Cc1cccc(Oc2ccc(Br)cc2CSc2ccc3ccccc3n2)c1   6.00 to 6.52
4  O=C(O)Cc1cccc(Oc2ccc(Br)cc2CS(=O)(=O)CCc2ccccc2)c1         < 6.00

----------
subjectOfTest: human DP2 receptor (Homo sapiens, UniProt Q9Y5Y4)
Sequence (Q9Y5Y4 1-395): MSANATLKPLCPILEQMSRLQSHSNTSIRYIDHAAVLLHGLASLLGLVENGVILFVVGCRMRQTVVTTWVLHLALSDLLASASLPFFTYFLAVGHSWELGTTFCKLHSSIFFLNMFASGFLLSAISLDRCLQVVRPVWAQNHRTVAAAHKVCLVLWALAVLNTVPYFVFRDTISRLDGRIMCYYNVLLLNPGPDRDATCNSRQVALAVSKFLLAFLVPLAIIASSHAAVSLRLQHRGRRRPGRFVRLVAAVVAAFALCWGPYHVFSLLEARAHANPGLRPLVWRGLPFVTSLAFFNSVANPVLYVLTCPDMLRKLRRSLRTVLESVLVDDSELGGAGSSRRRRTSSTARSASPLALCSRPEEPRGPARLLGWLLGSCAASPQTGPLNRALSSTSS
testDetails: DP2/CRTH2 radioligand binding assay ([3H]PGD2)
conditionNotes: membranes of HEK293 cells expressing recombinant human DP2, 1 nM [3H]PGD2; read-out: hDP2
valueKind: IC50

> print(dat)
                                    compound                             subjectoftest  valuekind   observedvalue
 1  CN(C)CCSCc1cc(Br)ccc1Oc1cccc(CC(=O)O)c1 [Compound 1-18]  human DP2 receptor (Homo sapiens, UniProt Q9Y5Y4)       IC50       > 1000 nM
 2  COc1ccc(CC(=O)O)cc1Oc1ccc(C(F)(F)F)cc1CS(=O)(=O)c1ccccc1 [Compound 1-7]  human DP2 receptor (Homo sapiens, UniProt Q9Y5Y4)       IC50  300 to 1000 nM
 3  CN(C)CC[S+]([O-])Cc1cc(Br)ccc1Oc1cccc(CC(=O)O)c1 (centres unmarked) [Compound 1-35]  human DP2 receptor (Homo sapiens, UniProt Q9Y5Y4)       IC50       > 1000 nM
 4  O=C(O)Cc1cccc(Oc2ccc(Br)cc2C[S+]([O-])c2ccccn2)c1 (centres unmarked) [Compound 1-31]  human DP2 receptor (Homo sapiens, UniProt Q9Y5Y4)       IC50       > 1000 nM
 5  O=C(O)Cc1cccc(Oc2ccc(Br)cc2C[S+]([O-])Cc2ccccc2)c1 (centres unmarked) [Compound 1-29]  human DP2 receptor (Homo sapiens, UniProt Q9Y5Y4)       IC50        < 300 nM
 6  COc1ccc(CC(=O)O)cc1Oc1ccc(C(F)(F)F)cc1CSCCc1ccccc1 [Compound 1-1]  human DP2 receptor (Homo sapiens, UniProt Q9Y5Y4)       IC50        < 300 nM
 7  CN(C)CCS(=O)(=O)Cc1cc(Br)ccc1Oc1cccc(CC(=O)O)c1 [Compound 1-27]  human DP2 receptor (Homo sapiens, UniProt Q9Y5Y4)       IC50        < 300 nM
 8  COc1ccc(CC(=O)O)cc1Cc1ccc(NC(=O)C(C)(C)C)cc1CSC(C)(C)C [Compound 1-107]  human DP2 receptor (Homo sapiens, UniProt Q9Y5Y4)       IC50        < 300 nM
 9  O=C(O)Cc1cccc(Oc2ccc(Br)cc2C[S+]([O-])c2nccs2)c1 (centres unmarked) [Compound 1-33]  human DP2 receptor (Homo sapiens, UniProt Q9Y5Y4)       IC50        < 300 nM
10  O=C(O)Cc1cccc(Oc2ccc(Br)cc2CS(=O)(=O)c2nccs2)c1 [Compound 1-25]  human DP2 receptor (Homo sapiens, UniProt Q9Y5Y4)       IC50  300 to 1000 nM
11  O=C(O)Cc1cccc(Oc2ccc(Br)cc2CS(=O)(=O)CCc2ccccc2)c1 [Compound 1-22]  human DP2 receptor (Homo sapiens, UniProt Q9Y5Y4)       IC50        < 300 nM
12  O=C(O)Cc1cccc(Oc2ccc(Br)cc2CS(=O)(=O)c2ccc3ccccc3n2)c1 [Compound 1-24]  human DP2 receptor (Homo sapiens, UniProt Q9Y5Y4)       IC50       > 1000 nM
13  COc1ccc(CC(=O)O)cc1Oc1ccc(C(F)(F)F)cc1CS(=O)(=O)CCc1ccccc1 [Compound 1-5]  human DP2 receptor (Homo sapiens, UniProt Q9Y5Y4)       IC50        < 300 nM
14  O=C(O)Cc1cccc(Oc2ccc(Br)cc2COc2ccccc2)c1 [Compound 1-37]  human DP2 receptor (Homo sapiens, UniProt Q9Y5Y4)       IC50       > 1000 nM
15  O=C(O)Cc1cccc(Oc2ccc(Br)cc2CSCCc2ccccc2)c1 [Compound 1-13]  human DP2 receptor (Homo sapiens, UniProt Q9Y5Y4)       IC50        < 300 nM
16  O=C(O)Cc1cccc(Oc2ccc(Br)cc2C[S+]([O-])c2ccc3ccccc3n2)c1 (centres unmarked) [Compound 1-32]  human DP2 receptor (Homo sapiens, UniProt Q9Y5Y4)       IC50        < 300 nM
17  O=C(O)Cc1cccc(Oc2ccc(Br)cc2CSc2ccccn2)c1 [Compound 1-17]  human DP2 receptor (Homo sapiens, UniProt Q9Y5Y4)       IC50  300 to 1000 nM

----------
subjectOfTest: human DP2 receptor (Homo sapiens)
testDetails: DP2/CRTH2 radioligand binding assay ([3H]PGD2)
conditionNotes: membranes of HEK293 cells expressing recombinant human DP2, 1 nM [3H]PGD2; read-out: hDP2
pIC50: −log10 of the molar value.
valueKind: pIC50

> print(dat)
                                    compound  observedvalue
 1  COc1ccc(CC(=O)O)cc1Oc1ccc(C(F)(F)F)cc1CS(=O)(=O)C(C)(C)C         < 6.00
 2  COc1ccc(CC(=O)O)cc1Oc1ccc(C(F)(F)F)cc1CSc1ccccc1         > 6.52
 3  Cc1nnc(SCc2cc(Br)ccc2Oc2cccc(CC(=O)O)c2)s1         > 6.52
 4  COc1ccc(CC(=O)O)cc1Oc1ccc(C(F)(F)F)cc1C[S+]([O-])CCc1ccccc1 (stereo not shown)         > 6.52
 5  CS(=O)(=O)c1ccc(-c2ccc(Oc3cccc(CC(=O)O)c3)c(CSc3ccccc3)c2)cc1   6.00 to 6.52
 6  O=C(O)Cc1cccc(Oc2ccc(Br)cc2C[S+]([O-])c2ccccc2)c1 (stereo not shown)         > 6.52
 7  COc1ccc(CC(=O)O)cc1Oc1ccc(C(F)(F)F)cc1CSC(C)(C)C   6.00 to 6.52
 8  O=C(O)Cc1cccc(Oc2ccc(Br)cc2C[S+]([O-])CCc2ccccc2)c1 (stereo not shown)         > 6.52
 9  COc1ccc(CC(=O)O)cc1Oc1ccc(C(F)(F)F)cc1CSCC(F)(F)F         > 6.52
10  COc1ccc(CC(=O)O)cc1Oc1ccc(C(F)(F)F)cc1C[S+]([O-])c1ccccc1 (stereo not shown)         > 6.52

Data origin: patent US20110190227A1
